// provenance: the Deep4Chem optical property database

assay: solvent given as SMILES; details: in ClC(Cl)Cl
Tick criterion met if absorption maximum is 400 nm or greater. Tick criterion not met if absorption maximum is less than 400 nm.

Example entries begin here.
1) CCCCCCn1c2cc(/C=C(\C#N)c3ccccc3)ccc2c2ccc(/C=C(\C#N)c3ccccc3)cc21 = criterion met
2) COc1ccc(-c2nc(-c3ccccc3)c(N(c3ccccc3)c3ccccc3)s2)cc1 = criterion not met
3) CCN(CC)c1ccc2cc(/C=C/C(=O)/C=C(O)/C=C/c3cc4ccc(N(CC)CC)cc4oc3=O)c(=O)oc2c1 = criterion met
4) CC1=NN(c2ccccc2)C(=O)/C1=C\c1cn(-c2ccccc2)nc1-c1ccc([N+](=O)[O-])cc1 = criterion not met
5) CC1=c2cc3c(cc2=[N+]2C1=Cc1c4ccccc4c(C)n1[B-]2(F)F)C1=Cc2c4ccccc4c(C)n2[B-](F)(F)[N+]1=C3C = criterion met

Identify whether the reported absorption maximum of the following compound is 400 nm or greater: CCCCN1C(=O)c2cc(Br)c3c4c(Br)c(Br)c5c6c(cc(Br)c(c7c(Br)c(Br)c(c2c37)C1=O)c64)C(=O)N(CCCC)C5=O
criterion met

absorption maximum >= 400 nm for CC(C)(C)c1ccc2oc3nc4oc5ccc(-n6c7ccccc7c7cc(-n8c9ccccc9c9ccccc98)ccc76)cc5c4cc3c2c1 ?
criterion not met
